# Target desc: rat CB2 receptor (rCB2) (Rattus norvegicus)
# Sequence (Q9QZN9 whole entry): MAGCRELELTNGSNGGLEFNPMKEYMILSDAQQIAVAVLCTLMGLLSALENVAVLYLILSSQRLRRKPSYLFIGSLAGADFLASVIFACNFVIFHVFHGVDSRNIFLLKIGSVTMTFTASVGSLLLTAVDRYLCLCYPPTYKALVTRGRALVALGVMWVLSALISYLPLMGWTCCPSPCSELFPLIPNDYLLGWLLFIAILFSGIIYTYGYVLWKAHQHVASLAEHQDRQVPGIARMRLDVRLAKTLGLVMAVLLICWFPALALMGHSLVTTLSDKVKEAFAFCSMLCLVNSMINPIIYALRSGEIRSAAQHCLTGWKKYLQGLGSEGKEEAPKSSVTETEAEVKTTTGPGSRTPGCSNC
# Protocol summary: cell-based
# Type: cell-based
# Reported conditions: agonist or inverse agonist at rCB2
Readout kind: +/− RCB2

- CNC(=O)[C@@H](NC(=O)c1nc(/C=C/COC)n2c1CN(C)CCC2)C(C)(C)C: +
- CNC(=O)[C@@H](NC(=O)c1nc(-c2ccccc2)n2c1CN(C)CCC2)C(C)(C)O: +
- COC(=O)N1CCn2c(-c3ccccc3)nc(C(=O)N[C@H](C)C3CCCCC3)c2C1: −
- O=C(NC1CCCCC1)c1nc(-c2ccccc2)n2c1CN(C(=O)C1CC1)CC2: −
- CNC(=O)[C@@H](NC(=O)c1nc(-c2ccccc2)n2c1CN(Cc1cccn1C)CC2)C(C)(C)C: −
- Cc1noc([C@@H](NC(=O)c2nc(-c3ccccc3)n3c2CN(CC2CC2)CC3)C(C)(C)C)n1: −
- CNC(=O)[C@@H](NC(=O)c1nc(-c2csc3ccccc23)n2c1CN(C)CC2)C(C)(C)C: +
- CCS(=O)(=O)N1CCCn2c(-c3ccccc3)nc(C(=O)N[C@H](C(=O)NC)C(C)(C)C)c2C1: −
- CC(C)CN1CCn2c(-c3ccccc3)nc(C(=O)N[C@H](C)C3CCCCC3)c2C1: −
- CC(C)CCNC(=O)c1nc(-c2ccc(Cl)cc2)n2c1CN(C(=O)OC(C)(C)C)CC2: −
- COC(=O)N1CCn2c(-c3ccccc3)nc(C(=O)NC3C4(C)CCC(C4)C3(C)C)c2C1 (stereo not shown): −
- CN1CCn2c(-c3ccccc3)nc(C(=O)NCC3OCCO3)c2C1: +
- CNC(=O)[C@@H](NC(=O)c1nc(C(=O)c2ccccc2)n2c1CN(C)CC2)C(C)(C)C: −
- CNC(=O)[C@@H](NC(=O)c1nc(C(C)C(F)(F)F)n2c1CN(C)CCC2)C(C)(C)C (stereo partly shown): +
- CNC(=O)[C@@H](NC(=O)c1nc(-c2cccc(C(F)(F)F)c2)n2c1CN(C)CCC2)C(C)(C)C: −
- CNC(=O)[C@H](C)NC(=O)c1nc(-c2ccccc2)n2c1CN(S(=O)(=O)c1ccc(F)cc1)CC2: +
- CC(C)(C)CNC(=O)c1nc(-c2ccccc2)n2c1CN(S(=O)(=O)c1ccc(F)cc1)CC2: −
- CC(C)(C)[C@@H](CO)NC(=O)c1nc(-c2ccc(Cl)cc2)n2c1CNCC2: −
- CC(C)CN1CCn2c(-c3ccccc3)nc(C(=O)NN3CCCCC3)c2C1: −
- COC(=O)c1cccc(CNC(=O)c2nc(-c3ccc(Cl)cc3F)n3c2CN(C)CC3)c1: −
- CNC(=O)[C@@H](NC(=O)c1nc(C2CCC(C)CC2)n2c1CN(C)CCC2)C(C)(C)C (stereo partly shown): +
- Cc1noc([C@@H](NC(=O)c2nc(-c3ccccc3)n3c2CN(C(=O)OC(C)(C)C)CCC3)C(C)(C)C)n1: −
- CNC(=O)[C@@H](NC(=O)c1nc(-c2ccccc2)n2c1CN(C(=O)C(C)(C)C)CC2)C(C)(C)C: −
- CNC(=O)[C@@H](NC(=O)c1nc(-c2ccc(F)cc2F)n2c1CN(C)CCC2)C(C)(C)C: +
- CNC(=O)[C@@H](NC(=O)c1nc(C2CCCCO2)n2c1CN(C)CCC2)C(C)(C)C (stereo partly shown): +
- CNC(=O)[C@@H](NC(=O)c1nc(-c2nccs2)n2c1CN(C)CC2)C(C)(C)C: +
- CNC(=O)[C@@H](NC(=O)c1nc(CCCN2CCCCC2)n2c1CN(C)CC2)C(C)(C)C: +
- CNC(=O)[C@@H](NC(=O)c1nc(/C=C/CN(C)C)n2c1CN(C)CCC2)C(C)(C)C: −
- CC(C)NC(=O)N1CCn2c(-c3ccccc3)nc(C(=O)NC3C4(C)CCC(C4)C3(C)C)c2C1 (stereo not shown): −
- CNC(=O)[C@@H](NC(=O)c1nc(-c2ccccc2)n2c1CN(C(C)=O)CC2)C(C)(C)C: +
- CNC(=O)[C@@H](NC(=O)c1nc(-c2ccccc2OC)n2c1CN(C)CCC2)C(C)(C)C: +
